Test: Toxicity liver stage against HepG2, at 10uM
Assay type: cell-based
Design: test concentration 10 uM, cell line HepG2-A16-CD81EGFP
Conditions: human, HepG2-A16-CD81EGFP cells; read-out: INHIBITION
Observed Property: cytotoxicity at 10 µM (%)
Please respond with the number in % and leave the unit unwritten.

Please review the following examples before continuing.
Compound	Observed Property	Units Label	Obs Value
Cc1nc(C)c(C(=O)N2CCCC(c3cnccn3)C2)s1 (configuration not stated)	cytotoxicity at 10 µM	%	-20.6
COCc1nc2cc(NCc3scnc3C)ccc2o1	cytotoxicity at 10 µM	%	18.6
Cc1cc(C2CCCN2C(=O)c2csc(-c3cnn(C)c3)n2)on1 (configuration not stated)	cytotoxicity at 10 µM	%	15.6
CC1CCCN(Cc2ccc(CNC(=O)NCc3ccon3)cc2)C1 (configuration not stated)	cytotoxicity at 10 µM	%	-10
Cc1cnn(CCNCC(=O)NCc2ccccc2)c1	cytotoxicity at 10 µM	%	-4.25
CC(Cn1cncn1)NCc1ccc2nonc2c1 (configuration not stated)	cytotoxicity at 10 µM	%	3.05

Proceed to the following item.
Asked: Please look up its cytotoxicity at 10 µM: `CNC(=O)c1ccc(S(=O)(=O)NCc2cccnc2N(C)C)cc1`
Given back: 1.59

Origin of the recorded values: ChEMBL document CHEMBL4513216
